Below is a list of entries, each paired with its recorded inhibition of growth at 10 µM value.
tested on: OVCAR-5; assay: Growth inhibition of human OVCAR5 cells at 10 uM incubated for 48 hrs by sulforhodamine B assay relative to control; format: functional; conditions: OVCAR-5, 48 h, read-out: GI

Known results for compounds:
{"columns": ["compound", "system_tested", "quantity", "assay_result"],
 "data": [
  ["CC(=O)C1=C(C)NC(SCc2nnc(-c3ccc(Cl)cc3)o2)=NC1c1ccc(Cl)cc1 (stereo not drawn)", "OVCAR-5", "inhibition of growth at 10 µM", "< 10%"],
  ["CCOC(=O)C1=C(C)NC(SCc2nnc(-c3ccc(Cl)cc3)o2)=NC1c1cccc(Cl)c1 (stereo not drawn)", "OVCAR-5", "inhibition of growth at 10 µM", "10.5%"],
  ["CCOC(=O)C1=C(C)NC(SCc2nnc(-c3ccc(Cl)cc3)o2)=NC1c1ccccc1 (stereo not drawn)", "OVCAR-5", "inhibition of growth at 10 µM", "< 10%"],
  ["CCOC(=O)C1=C(C)NC(SCc2nnc(-c3ccc(Cl)cc3)o2)=NC1c1ccc(OC)cc1 (stereo not drawn)", "OVCAR-5", "inhibition of growth at 10 µM", "< 10%"],
  ["CCOC(=O)C1=C(C)NC(SCc2nnc(-c3ccc(Cl)cc3)o2)=NC1c1ccc(Cl)cc1 (stereo not drawn)", "OVCAR-5", "inhibition of growth at 10 µM", "10.4%"]
]}

Using the record for CCOC(=O)C1=C(C)NC(SCc2nnc(-c3ccc(C)cc3)o2)=NC1c1ccc(F)cc1 (stereo not drawn) , state its measured inhibition of growth at 10 µM.
< 10%

Using the record for CC(=O)C1=C(C)NC(SCc2nnc(-c3ccc(C)cc3)o2)=NC1c1ccc(F)cc1 (stereo not drawn) , state its measured inhibition of growth at 10 µM.
10.4%

Using the record for CCOC(=O)C1=C(C)NC(SCc2nnc(-c3ccc(Cl)cc3)o2)=NC1c1ccc(Br)cc1 (stereo not drawn) , state its measured inhibition of growth at 10 µM.
< 10%

###

system: EKVX; assay: Growth inhibition of human EKVX cells at 10 uM incubated for 48 hrs by sulforhodamine B assay relative to control; assay type: functional; settings: read-out: GI
quantity: inhibition of growth at 10 µM

{"columns": ["molecule", "assay_result"],
 "data": [
  ["CCOC(=O)C1=C(C)NC(SCc2nnc(-c3ccc(Cl)cc3)o2)=NC1c1ccc(Cl)cc1Cl (stereo not drawn)", "22.8%"],
  ["CCOC(=O)C1=C(C)NC(SCc2nnc(-c3ccc(Cl)cc3)o2)=NC1c1ccc(OC)cc1 (stereo not drawn)", "< 10%"],
  ["CCOC(=O)C1=C(C)NC(SCc2nnc(-c3ccc(Cl)cc3)o2)=NC1c1ccc(F)cc1 (stereo not drawn)", "< 10%"]
]}

System EKVX. Read-out inhibition of growth at 10 µM. Item CCOC(=O)C1=C(C)NC(SCc2nnc(-c3ccc(Cl)cc3)o2)=NC1c1cccc(Cl)c1 (stereo not drawn) . Report value.
< 10%

System EKVX. Read-out inhibition of growth at 10 µM. Item CC(=O)C1=C(C)NC(SCc2nnc(-c3ccc(Cl)cc3)o2)=NC1c1ccc(F)cc1 (stereo not drawn) . Report value.
< 10%

System EKVX. Read-out inhibition of growth at 10 µM. Item CCOC(=O)C1=C(C)NC(SCc2nnc(-c3ccc(Cl)cc3)o2)=NC1c1ccccc1 (stereo not drawn) . Report value.
14.8%

System EKVX. Read-out inhibition of growth at 10 µM. Item CCOC(=O)C1=C(C)NC(SCc2nnc(-c3ccc(C)cc3)o2)=NC1c1ccc(F)cc1 (stereo not drawn) . Report value.
< 10%

###

Below is a list of entries, each paired with its recorded inhibition of growth at 10 µM value.
tested on: NCI-H226; experiment: Growth inhibition of human NCI-H226 cells at 10 uM incubated for 48 hrs by sulforhodamine B assay relative to control; format: functional; details: NCI-H226, 48 h, read-out: GI

Known results for compounds:
{"columns": ["compound", "inhibition of growth at 10 µM"],
 "data": [
  ["CC(=O)C1=C(C)NC(SCc2nnc(-c3ccc(Cl)cc3)o2)=NC1c1ccc(Cl)cc1 (centres undefined)", "11.4%"],
  ["CCOC(=O)C1=C(C)NC(SCc2nnc(-c3ccc(C)cc3)o2)=NC1c1ccc(F)cc1 (centres undefined)", "10.1%"],
  ["CCOC(=O)C1=C(C)NC(SCc2nnc(-c3ccc(Cl)cc3)o2)=NC1c1ccccc1 (centres undefined)", "11.4%"]
]}

With those in mind, consider the next compound.
Using the record for CCOC(=O)C1=C(C)NC(SCc2nnc(-c3ccc(Cl)cc3)o2)=NC1c1ccc(Cl)cc1 (centres undefined) , state its measured inhibition of growth at 10 µM.
30.1%

###

tested on: RPMI-8226; experiment: Growth inhibition of human RPMI8226 cells at 10 uM incubated for 48 hrs by sulforhodamine B assay relative to control; type: functional; settings: RPMI-8226, 48 h, read-out: GI
quantity: inhibition of growth at 10 µM (%)
Quick note: give the figure in %, leave out the unit.

Known results for molecules:
{"columns": ["molecule", "assay_result"],
 "data": [
  ["CCOC(=O)C1=C(C)NC(SCc2nnc(-c3ccc(Cl)cc3)o2)=NC1c1ccc(F)cc1 (configuration not stated)", 25.8],
  ["CC(=O)C1=C(C)NC(SCc2nnc(-c3ccc(Cl)cc3)o2)=NC1c1ccc(Cl)cc1 (configuration not stated)", 32.9],
  ["CC(=O)C1=C(C)NC(SCc2nnc(-c3ccc(Cl)cc3)o2)=NC1c1ccc(F)cc1 (configuration not stated)", 13.8],
  ["CCOC(=O)C1=C(C)NC(SCc2nnc(-c3ccc(Cl)cc3)o2)=NC1c1ccc(Cl)cc1 (configuration not stated)", 64.2],
  ["CCOC(=O)C1=C(C)NC(SCc2nnc(-c3ccc(Cl)cc3)o2)=NC1c1ccccc1 (configuration not stated)", 27.3]
]}

System RPMI-8226. Read-out inhibition of growth at 10 µM. Item CCOC(=O)C1=C(C)NC(SCc2nnc(-c3ccc(C)cc3)o2)=NC1c1ccc(F)cc1 (configuration not stated) . Report value.
27.2

System RPMI-8226. Read-out inhibition of growth at 10 µM. Item COc1ccc(-c2nnc(CSC3=NC(c4ccc(F)cc4)C(C(C)=O)=C(C)N3)o2)cc1 (configuration not stated) . Report value.
14

System RPMI-8226. Read-out inhibition of growth at 10 µM. Item CC(=O)C1=C(C)NC(SCc2nnc(-c3ccc(C)cc3)o2)=NC1c1ccc(F)cc1 (configuration not stated) . Report value.
16.3

System RPMI-8226. Read-out inhibition of growth at 10 µM. Item CCOC(=O)C1=C(C)NC(SCc2nnc(-c3ccc(Cl)cc3)o2)=NC1c1ccc(OC)cc1 (configuration not stated) . Report value.
18.3

System RPMI-8226. Read-out inhibition of growth at 10 µM. Item CCOC(=O)C1=C(C)NC(SCc2nnc(-c3ccc(Cl)cc3)o2)=NC1c1ccc(Br)cc1 (configuration not stated) . Report value.
61.6

System RPMI-8226. Read-out inhibition of growth at 10 µM. Item CCOC(=O)C1=C(C)NC(SCc2nnc(-c3ccc(Cl)cc3)o2)=NC1c1cccc(Cl)c1 (configuration not stated) . Report value.
46.4

###

tested on: Hs-578T; assay: Growth inhibition of human Hs 578T cells at 10 uM incubated for 48 hrs by sulforhodamine B assay relative to control; type: functional; conditions: read-out: GI
Below is a list of entries, each paired with its recorded inhibition of growth at 10 µM value.

Known results for compounds:
{"columns": ["compound", "assay_result"],
 "data": [
  ["CCOC(=O)C1=C(C)NC(SCc2nnc(-c3ccc(Cl)cc3)o2)=NC1c1ccccc1 (centres undefined)", "< 10%"],
  ["COc1ccc(-c2nnc(CSC3=NC(c4ccc(F)cc4)C(C(C)=O)=C(C)N3)o2)cc1 (centres undefined)", "< 10%"],
  ["CC(=O)C1=C(C)NC(SCc2nnc(-c3ccc(Cl)cc3)o2)=NC1c1ccc(Cl)cc1 (centres undefined)", "< 10%"],
  ["CCOC(=O)C1=C(C)NC(SCc2nnc(-c3ccc(Cl)cc3)o2)=NC1c1ccc(Cl)cc1Cl (centres undefined)", "32.9%"],
  ["CCOC(=O)C1=C(C)NC(SCc2nnc(-c3ccc(Cl)cc3)o2)=NC1c1ccc(Cl)cc1 (centres undefined)", "16.3%"],
  ["CCOC(=O)C1=C(C)NC(SCc2nnc(-c3ccc(Cl)cc3)o2)=NC1c1cccc(Cl)c1 (centres undefined)", "< 10%"],
  ["CCOC(=O)C1=C(C)NC(SCc2nnc(-c3ccc(OC)cc3)o2)=NC1c1ccc(F)cc1 (centres undefined)", "< 10%"],
  ["CC(=O)C1=C(C)NC(SCc2nnc(-c3ccc(C)cc3)o2)=NC1c1ccc(F)cc1 (centres undefined)", "< 10%"]
]}

With those in mind, consider the next compound.
Using the record for CCOC(=O)C1=C(C)NC(SCc2nnc(-c3ccc(Cl)cc3)o2)=NC1c1ccc(F)cc1 (centres undefined) , state its measured inhibition of growth at 10 µM.
< 10%
